- systemName: T1, VEGFR-2-Fc (UniProt P35968 20-322)
- T1 construct: domain: first 3 Ig domains; conditioned supernatant of 293T cells; also called VEGFR-2-Fc fusion protein; not shown: Fc fragment of the pIg vector
- T1 sequence (P35968 20-322): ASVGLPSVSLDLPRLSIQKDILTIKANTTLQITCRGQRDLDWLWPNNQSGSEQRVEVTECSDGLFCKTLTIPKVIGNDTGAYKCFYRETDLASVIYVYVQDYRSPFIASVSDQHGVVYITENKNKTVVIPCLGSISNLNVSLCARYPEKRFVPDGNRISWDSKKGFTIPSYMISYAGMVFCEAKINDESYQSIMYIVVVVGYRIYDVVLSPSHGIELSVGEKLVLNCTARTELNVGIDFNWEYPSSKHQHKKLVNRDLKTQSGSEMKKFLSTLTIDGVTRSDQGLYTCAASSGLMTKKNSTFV
- assayProcedure: receptor-Fc IP
reportedEndpoint: binding result

binder	binding result
52-5 (ligand) AHYNTEILKSIDNEWRKTQCMPIETLVDIFQEFGVATNTFFKPPCVSVYRCGGCCNDEGLECVPTEESNITMQIMRIKPHQGQHIGEMSFANHTSCRCMSKLD	no binding
72-12 (ligand) GQNHHEVVKSIDNEWRKTQCMPREVCIDVGKEFGVATNTFFKPPCVSVYRCGGCCNSEGLQCMNTSTSYLSKTLFEITVPLSQGPKPVTISFLQHNKCECRPKKD	binds
62-12 (ligand) GQNHHEVVKFMDVYQRSYCHPREVCIDVGKEFGVATNTFFKPPCVSVYRCGGCCNSEGLQCMNTSTSYLSKTLFEITVPLSQGPKPVTISFLQHNKCECRPKKD	no binding
73-15 (ligand) GQNHHEVVKSIDNEWRKTQCMPREVCIDVGKEYPDEIEYIFKPPCVSVYRCGGCCNSEGLQCVPTEESNITMQIMRITVPLSQGPKPVTISFANHTSCRCMSKLD	binds
74-11 (ligand) GQNHHEVVKSIDNEWRKTQCMPREVCIDVGKEFGVATNTFFKPSCVPLMRCGGCCNSEGLQCVPTEESNITMQIMRITVPLSQGPKPVTISFLQHNKCECRPKKD	no binding

Using the record for 42-7 (ligand) AHYNTEILKFMDVYQRSYCHPREVCIDVGKEFGVATNTFFKPPCVSVYRCGGCCNSEGLQCVPTEESNITMQIMRIKPHQGQHIGEMSFANHTSCRCMSKLD , report its binding result.
no binding

Give the measured binding result of 61-1 (ligand) GQNHHEVVKFMDVYQRSYCHPREVCIDVGKEYPDEIEYIFKPSCVPLMRCGGCCNDEGLECVPTEESNITMQIMRIKPHQGQHIGEMSFLQHNKCECRPKKD .
no binding

Look at this binder and give its reported binding result. 22-9 (ligand) AHYNTEILKSIDNEWRKTQCMPREVCIDVGKEFGVATNTFFKPPCVSVYRCGGCCNDEGLECVPTEESNITMQIMRITVPLSQGPKPVTISFLQHNKCECRPKKD
no binding
